# TARGET ENTITY: HLA-B*08:01
# MEASUREMENT NOTES: IEDB peptide-MHC binding, purified MHC/competitive/fluorescence; filed as Kd, often an IC50 or EC50 that approximates it; bounds were set here for any values at or beyond the usual limits of such assays
# CONDITION DETAILS: source organism: Vibrio vulnificus YJ016
pKd: −log10 of the molar value.
RECORDED METRIC: pKd

Form field: reported pKd of SVFELSNFA ≤ 5.30

###

# TARGET ENTITY: HLA-A*31:01
# MEASUREMENT NOTES: IEDB peptide-MHC binding, purified MHC/competitive/fluorescence; bounds were set here for any values at or beyond the usual limits of such assays
# CONDITION DETAILS: source organism: Tarsius lariang
pIC50: −log10 of the molar value.
RECORDED METRIC: pIC50

Request body: readout pIC50, system HLA-A*31:01, query TEAEKWPFF . Return the value. ≤ 4.70

###

# TARGET ENTITY: HLA-A*02:12
# MEASUREMENT NOTES: IEDB peptide-MHC binding, purified MHC/direct/fluorescence; filed as Kd, often an IC50 or EC50 that approximates it; bounds were set here for any values at or beyond the usual limits of such assays
# CONDITION DETAILS: source organism: Mycobacterium tuberculosis str. Haarlem
RECORDED METRIC: Kd

Tell me the measured Kd of EILWDVIPF , please. ≥ 20 µM

###

# TARGET ENTITY: HLA-B*46:01
# MEASUREMENT NOTES: IEDB peptide-MHC binding, purified MHC/competitive/fluorescence; filed as Kd, often an IC50 or EC50 that approximates it; bounds were set here for any values at or beyond the usual limits of such assays
# CONDITION DETAILS: source organism: Coxiella burnetii
RECORDED METRIC: Kd

Hi! What's the reported Kd for KFFMVHSLK on HLA-B*46:01? ≥ 20 µM

###

# TARGET ENTITY: HLA-B*39:01
# MEASUREMENT NOTES: IEDB peptide-MHC binding, purified MHC/competitive/fluorescence; filed as Kd, often an IC50 or EC50 that approximates it; bounds were set here for any values at or beyond the usual limits of such assays
# CONDITION DETAILS: source organism: Orthohantavirus delgaditoense
pKd: −log10 of the molar value.
RECORDED METRIC: pKd

Could you tell me which pKd is on file for DWMERIEDF ? ≤ 4.70

###

# TARGET ENTITY: HLA-B*07:02
# MEASUREMENT NOTES: IEDB peptide-MHC binding, purified MHC/direct/fluorescence; filed as Kd, often an IC50 or EC50 that approximates it; bounds were set here for any values at or beyond the usual limits of such assays
# CONDITION DETAILS: source organism: Homo sapiens
Assign pKd to each entry below.
Here pKd is given on a logarithmic scale as minus log10 of the concentration in mol/L.

Give the measured pKd of RPKSNIVLL . 6.70

And what about the sequence APRTLVLLL ? 6.84

###

# TARGET ENTITY: HLA-A*69:01
# MEASUREMENT NOTES: IEDB peptide-MHC binding, purified MHC/direct/fluorescence; filed as Kd, often an IC50 or EC50 that approximates it; bounds were set here for any values at or beyond the usual limits of such assays
# CONDITION DETAILS: source organism: Influenza A virus (A/swine/Miyagi/5/2003(H1N2))
pKd: −log10 of the molar value.
RECORDED METRIC: pKd

Fill in: pKd of GTEKLTITY is ___ ≤ 4.70
